Provenance of the data: paper PMC9482650

Biological target: T1, MPDZ_5, O75970
T1 sequence (O75970 695-796, limits assumed, looked up): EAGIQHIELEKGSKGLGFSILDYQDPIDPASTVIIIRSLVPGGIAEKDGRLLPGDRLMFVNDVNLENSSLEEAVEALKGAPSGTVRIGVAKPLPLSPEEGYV
Assay: holdup assay
Set-up: key: below the threshold = too weak to quantify, mostly under pKd 3.1 to 4
Settings: plain residues with an end cap or a label only (N-terminal biotin on a linker: ado-ado)
property: pKd

DDASLPVSDV [PLEKHA1, Q9HB21]    below the threshold
ARSAAASNYV [CLDN4, O14493]    below the threshold
PSHPRLQTHV [KIRREL2, Q6UWL6]    below the threshold
DGVNEKVSCV [HTR2A, P28223]    below the threshold
EKCGKEFSEF [PRKACA, P17612]    below the threshold

Prompt: Form field: reported pKd of SVTSERETNI [SLC16A7, O60669]
Completion: below the threshold

Prompt: What does the data say about its pKd? Entry: REEPDHSTEV [CCRL2, O00421]
Completion: below the threshold

Prompt: Suppose we examine the binder ILRKSTTTTV [PRR16, Q569H4] ; what pKd value has been reported?
Completion: below the threshold
